- Tested system: G protein-activated inward rectifier potassium channel 2 (Homo sapiens) + G protein-activated inward rectifier potassium channel 1 (Homo sapiens) (UniProt P48051+P48549)
- Sequence (P48051 whole entry, looked up): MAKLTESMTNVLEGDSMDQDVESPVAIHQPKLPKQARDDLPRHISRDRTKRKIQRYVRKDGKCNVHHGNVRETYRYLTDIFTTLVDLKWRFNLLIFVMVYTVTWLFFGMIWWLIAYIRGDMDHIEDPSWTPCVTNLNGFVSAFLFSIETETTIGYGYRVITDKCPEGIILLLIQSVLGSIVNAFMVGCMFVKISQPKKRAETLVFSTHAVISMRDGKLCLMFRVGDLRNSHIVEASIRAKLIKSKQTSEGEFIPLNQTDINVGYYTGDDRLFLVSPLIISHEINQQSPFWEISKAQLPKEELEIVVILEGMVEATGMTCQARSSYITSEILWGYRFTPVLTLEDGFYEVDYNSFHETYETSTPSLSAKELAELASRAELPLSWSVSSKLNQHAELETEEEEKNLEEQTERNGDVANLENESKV
- Sequence (P48549 whole entry, looked up): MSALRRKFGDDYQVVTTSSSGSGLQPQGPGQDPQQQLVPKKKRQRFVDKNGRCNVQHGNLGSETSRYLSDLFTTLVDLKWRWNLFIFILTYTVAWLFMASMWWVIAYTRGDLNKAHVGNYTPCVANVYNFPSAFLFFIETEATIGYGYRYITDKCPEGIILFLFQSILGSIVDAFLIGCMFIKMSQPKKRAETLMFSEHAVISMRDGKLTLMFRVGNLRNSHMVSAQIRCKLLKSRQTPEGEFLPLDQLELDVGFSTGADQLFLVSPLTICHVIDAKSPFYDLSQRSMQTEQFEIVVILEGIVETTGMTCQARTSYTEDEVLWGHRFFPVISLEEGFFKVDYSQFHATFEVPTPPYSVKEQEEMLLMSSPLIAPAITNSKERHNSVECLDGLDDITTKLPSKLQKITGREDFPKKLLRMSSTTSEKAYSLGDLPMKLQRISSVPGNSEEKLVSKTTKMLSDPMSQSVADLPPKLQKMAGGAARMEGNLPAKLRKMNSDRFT
- Protocol notes: GIRK1/2 thallium flux modulators, retest, confirmation, cell-based, HEK293 rmGlu8/hGIRK1/2, FluoZin-2 (AID 623911)
- Assay conditions: HEK293 rmGlu8/hGIRK1/2, thallium flux FluoZin-2; actives lie on both sides; glutamate co-added at its EC20 level
In all, about 2,100 compounds went through this assay and about 770 (37%) were called active. Some of the results follow.
Parameter: manual score
Give the figure only, with no unit attached.

compound=COCCCNc1c2c3c(cccc3[nH]c1=O)C(=O)c1ccccc1-2 result_number=3
compound=CCOn1c(=O)c(-c2cccs2)[n+]([O-])c2ccccc21 result_number=3
compound=CCOC(=O)Cn1c(=O)oc2cc(S(=O)(=O)NCCCc3ccccc3)ccc21 result_number=0

Q) Param item = CCOC(=O)Cn1c(=N)n(Cc2ccccc2F)c2ccccc21 ; retrieve measured manual score.
A) -1

Q) And CCOC(=O)c1cnn2c1[nH]c(=O)c1ccccc12 ?
A) 1
